system: K562; assay: Antiproliferative activity in human K562 cells after 48 hrs by MTT assay; format: functional, cell-based; conditions: K562, 48 h
pIC50: −log10 of the molar value.
# maps each entry to its pIC50

Examples with answers:
Molecule | Attribute measured | Observed
Oc1cc2ccc1-c1c(ccc(CN3CCOCC3)c1O)CCc1ccc(cc1)Oc1cc(cc(CN3CCOCC3)c1O)CC2 | pIC50 | < 4.70
Oc1ccc2cc1Oc1ccc(cc1)CCc1ccc(CN3CCOCC3)c(O)c1-c1ccc(cc1O)CC2 | pIC50 | < 4.70
Oc1cc2ccc1-c1c(ccc(CN3CCN(Cc4ccccc4)CC3)c1O)CCc1ccc(cc1)Oc1cc(cc(CN3CCN(Cc4ccccc4)CC3)c1O)CC2 | pIC50 | < 4.70
CN1CCN(Cc2cc3cc(c2O)Oc2ccc(cc2)CCc2ccc(CN4CCN(C)CC4)c(O)c2-c2ccc(cc2O)CC3)CC1 | pIC50 | 5.48
COCCN(CCOC)Cc1cc2cc(c1O)Oc1ccc(cc1)CCc1ccc(CN(CCOC)CCOC)c(O)c1-c1ccc(cc1O)CC2 | pIC50 | < 4.70
CC(C)(C)OC(=O)N1CCN(Cc2cc3cc(c2O)Oc2ccc(cc2)CCc2ccc(CN4CCN(C(=O)OC(C)(C)C)CC4)c(O)c2-c2ccc(cc2O)CC3)CC1 | pIC50 | < 4.70

In the following, a different molecule is considered.
input: Find the measured pIC50: item CN(C)CCOc1ccc2cc1Oc1ccc(cc1)CCc1cccc(OCCN(C)C)c1-c1ccc(cc1OCCN(C)C)CC2 , target or system K562.
output: 6.72
